property_label: melting point (°C)
Answers are plain numbers, in °C.

Below, each entry is followed by its recorded melting point result.
[[record]]
smiles_repr = "CCn1nc(C(C)(C)C)c2c1C(=O)NCC(c1ccccc1)=N2"
units_symbol = "°C"
measured_number = 160

[[record]]
smiles_repr = "CCn1nc(C)c2c1C(=O)NCC(c1cccnc1)=N2"
units_symbol = "°C"
measured_number = 178

[[record]]
smiles_repr = "CCn1nc(C)c2c1C(=O)NCC(c1ccccc1N)=N2"
units_symbol = "°C"
measured_number = 156

[[record]]
smiles_repr = "CCn1nc(C(C)C)c2c1C(=O)NCC(c1ccccc1)=N2"
units_symbol = "°C"
measured_number = 157.2


Batch lookup, melting point per entry.
1. CCn1nc(C(C)C)c2c1C(=NC#N)NCC(C(C)(C)C)=N2
2. CCCCc1nn(CC)c2c1N=C(c1ccccc1)CNC2=S

-- reply
[243, 151.5]

###

- target_of_assay: PDE4
- protocol_description: Inhibition of PDE4 (cytosolic enzyme preparation from U937 line), compared with rolipram
- protocol_conditions: PDE4 enzyme preparation obtained from the U937 line
Exercise: state measured IC50 for each of the compounds provided.
One number for each entry, in nM.

[[record]]
compound = "CCn1nc(C(C)(C)C)c2c1C(=O)NCC(c1ccc(O)cc1)=N2 [Example 96]"
target_of_assay = "PDE4"
units_symbol = "nM"
measured_number = 4.9

[[record]]
compound = "CCn1nc(C)c2c1C(=NC#N)NCC(c1ccc(OC)cc1)=N2 [Example 84]"
target_of_assay = "PDE4"
units_symbol = "nM"
measured_number = 60

[[record]]
compound = "CCn1nc(-c2ccccc2)c2c1C(=O)NCC(c1ccccc1)=N2 [Example 4]"
target_of_assay = "PDE4"
units_symbol = "nM"
measured_number = 8.4

[[record]]
compound = "CCCn1nc(C(C)(C)C)c2c1C(=S)NCC(C(C)(C)C)=N2 [Example 64]"
target_of_assay = "PDE4"
units_symbol = "nM"
measured_number = 4.6

[[record]]
compound = "CCn1nc(C(C)C)c2c1C(=O)NCC(c1ccc(O)cc1)=N2 [Example 94]"
target_of_assay = "PDE4"
units_symbol = "nM"
measured_number = 2.1

[[record]]
compound = "CCn1nc(C)c2c1C(=O)NCC(c1ccc(C(F)(F)F)cc1)=N2 [Example 60]"
target_of_assay = "PDE4"
units_symbol = "nM"
measured_number = 580


Batch lookup, IC50 per entry.
1. CCn1nc(CC2CCCCC2)c2c1C(=O)NCC(c1ccncc1)=N2 [Example 76]
2. CCCn1nc(C(C)C)c2c1C(=O)NCC(c1ccc(OC)cc1OC)=N2 [Example 43]
3. CCCn1nc(C2CCCCC2)c2c1C(=O)NCC(c1ccncc1)=N2 [Example 75]
4. CCCn1nc(C(C)CC)c2c1C(=O)NCC(c1ccccc1)=N2 (racemic) [Example 70]
5. CCCn1nc(C)c2c1C(=O)NCC(c1ccccc1)=N2 [Example 15]
6. CCn1nc(C(C)C)c2c1C(=S)NCC(C(C)(C)C)=N2 [Example 67]

-- reply
8.2
48
4.9
11
520
1

###

- target_of_assay: PDE4
- protocol_description: Inhibition of PDE4 (cytosolic enzyme preparation from U937 line), compared with rolipram
- Assay type: biochemical, human
- protocol_conditions: PDE4 enzyme preparation obtained from the U937 line
Exercise: state measured IC50 for each of the molecules provided.
Answers are plain numbers, in nM.

Below, each entry is followed by its recorded IC50 result.
[[record]]
molecule = "CCn1nc(C)c2c1C(=O)NCC(c1ccc(N)cc1)=N2 [Example 12]"
units_symbol = "nM"
measured_number = 100

[[record]]
molecule = "CCn1nc(C)c2c1C(=O)NCC(c1cccc(N)c1)=N2 [Example 24]"
units_symbol = "nM"
measured_number = 78

[[record]]
molecule = "CCn1nc(C)c2c1C(=O)NCC(c1ccc(O)cc1)=N2 [Example 28]"
units_symbol = "nM"
measured_number = 90

[[record]]
molecule = "CCOCc1nn(CC)c2c1N=C(c1ccccc1)CNC2=O [Example 97]"
units_symbol = "nM"
measured_number = 1580

[[record]]
molecule = "CCn1nc(C(C)C)c2c1C(=O)NCC(C(C)(C)C)=N2 [Example 35]"
units_symbol = "nM"
measured_number = 0.7

[[record]]
molecule = "CCCn1nc(C(C)C)c2c1C(=S)NCC(C(C)(C)C)=N2 [Example 65]"
units_symbol = "nM"
measured_number = 1.5

[[record]]
molecule = "CCCn1nc(CC2CCCCC2)c2c1C(=O)NCC(c1ccncc1)=N2 [Example 78]"
units_symbol = "nM"
measured_number = 21

[[record]]
molecule = "Cc1nn(CC(F)(F)F)c2c1N=C(c1ccccc1)CNC2=O [Example 30]"
units_symbol = "nM"
measured_number = 300

[[record]]
molecule = "CCn1nc(C(C)(C)C)c2c1C(=O)NCC(c1ccc(N)cc1)=N2 [Example 26]"
units_symbol = "nM"
measured_number = 5.6

[[record]]
molecule = "CCCn1nc(C(C)(C)C)c2c1C(=O)NCC(c1ccc(OC)cc1OC)=N2 [Example 51]"
units_symbol = "nM"
measured_number = 60


Batch lookup, IC50 per entry.
1. CCn1nc(C(C)C)c2c1C(=O)NCC(c1ccc(C)cc1)=N2 [Example 36]
2. CCn1nc(C(C)(C)C)c2c1C(=NC#N)NCC(c1ccccc1)=N2 [Example 57]
3. CCn1nc(C(C)C)c2c1C(=O)NCC(c1ccc(OC)cc1OC)=N2 [Example 39]
4. CCn1nc(C)c2c1C(=O)NCC(c1cccc(OC)c1)=N2 [Example 18]
5. CCCn1nc(C(C)C)c2c1C(=O)NCC(C(C)(C)C)=N2 [Example 40]
6. CCn1nc(C)c2c1C(=O)NCC(c1ccc(Cl)cc1)=N2 [Example 11]

-- reply
1: 0.39; 2: 0.13; 3: 9.1; 4: 100; 5: 8.2; 6: 120

Batch lookup, IC50 per entry.
1. CCn1nc(C)c2c1C(=NC#N)NCC(c1ccccc1)=N2 [Example 55]
2. CCn1nc(C(C)(C)C)c2c1C(=O)NCC(c1ccc(OC)cc1OC)=N2 [Example 47]
3. CCn1nc(C)c2c1C(=O)NCC(c1ccccn1)=N2 [Example 54]
4. CCn1nc(C)c2c1C(=O)NCC(c1cccnc1)=N2 [Example 53]

-- reply
1: 1.7; 2: 21; 3: 240; 4: 260

###

- target_of_assay: PDE4
- protocol_description: Inhibition of PDE4 (cytosolic enzyme preparation from U937 line), compared with rolipram
- protocol_conditions: PDE4 enzyme preparation obtained from the U937 line
property_label: IC50 (nM)
Answers are plain numbers, in nM.

Below, each entry is followed by its recorded IC50 result.
[[record]]
smiles_repr = "CCn1nc(C)c2c1C(=O)NCC(c1cccc(Br)c1)=N2"
property_label = "IC50"
measured_number = 81

[[record]]
smiles_repr = "CCCn1nc(C(C)C)c2c1C(=O)NCC(c1ccc(C)cc1)=N2"
property_label = "IC50"
measured_number = 11

[[record]]
smiles_repr = "CCn1nc(C)c2c1C(=O)NCC(c1ccccc1O)=N2"
property_label = "IC50"
measured_number = 7.4

[[record]]
smiles_repr = "CCn1nc(C)c2c1C(=O)NCC(c1ccc3ccccc3c1)=N2"
property_label = "IC50"
measured_number = 210

[[record]]
smiles_repr = "CCn1nc(C(C)C)c2c1C(=O)NCC(c1ccc(OC)cc1)=N2"
property_label = "IC50"
measured_number = 62


Batch lookup, IC50 per entry.
1. C=CCn1nc(C)c2c1C(=O)NCC(c1ccccc1)=N2
2. CCn1nc(C(C)C)c2c1C(=NC#N)NCC(c1ccccc1)=N2
3. CCn1nc(C)c2c1C(=O)NCC(c1ccc(F)cc1)=N2
4. CCCn1nc(C(C)C)c2c1C(=S)NCC(c1ccc(C)cc1)=N2

-- reply
510
0.12
130
5

-- ask For `CCCn1nc(C2CCCCC2)c2c1C(=O)NCC(c1ccccc1)=N2` , what is its reported IC50?
-- reply 5.4

###

- target_of_assay: PDE4
- protocol_description: Inhibition of PDE4 (cytosolic enzyme preparation from U937 line), compared with rolipram
- protocol_conditions: PDE4 enzyme preparation obtained from the U937 line
Simple rule here: IC50 less than 90 nM is yes, otherwise no.

As a guide, the following entries are already answered.
[[record]]
compound = "CCCn1nc(C)c2c1C(=O)NCC(c1ccc(N)cc1)=N2 [Example 29]"
category_label = "no"

[[record]]
compound = "CCn1nc(C)c2c1C(=O)NCC(c1ccccc1OC)=N2 [Example 20]"
category_label = "no"

[[record]]
compound = "CCn1nc(C)c2c1C(=S)NCC(c1ccccc1)=N2 [Example 17]"
category_label = "yes"

[[record]]
compound = "CCn1nc(C)c2c1C(=O)NCC(c1cc(OC)c(OC)c(OC)c1)=N2 [Example 91]"
category_label = "no"

[[record]]
compound = "CCn1nc(C2CCCCC2)c2c1C(=O)NCC(c1ccncc1)=N2 [Example 73]"
category_label = "yes"

[[record]]
compound = "CCn1nc(C)c2c1C(=O)NCC(c1ccncc1)=N2 [Example 32]"
category_label = "no"


-- ask Lab note: confirm whether the reported IC50 for this compound is below 90 nM, equality not counting. compound: CCn1nc(C(C)C)c2c1C(=O)NCC(c1ccc(N)cc1)=N2 [Example 27]
-- reply yes

-- ask Lab note: confirm whether the reported IC50 for this compound is below 90 nM, equality not counting. compound: CCn1nc(C)c2c1C(=O)NCC(C(C)(C)C)=N2 [Example 33]
-- reply no

-- ask Lab note: confirm whether the reported IC50 for this compound is below 90 nM, equality not counting. compound: CCn1nc(C)c2c1C(=O)NCC(c1ccccc1N)=N2 [Example 19]
-- reply yes

-- ask Lab note: confirm whether the reported IC50 for this compound is below 90 nM, equality not counting. compound: CCn1nc(C(C)(C)C)c2c1C(=S)NCC(c1ccccc1)=N2 [Example 25]
-- reply yes
